This collection of values is drawn from paper PMC2397435.

B1: Gal4 DBD-HIV-1 p6 (wild type) [HIV-1 (pNL4-3)] / Gal4 AD-ALIX (868 amino acid-long) [not stated] (parent complex)
chain 1: LQSRPEPTAPPEESFRFGEETTTPSQKQEPIDKELYPLTSLRSLFGSDPSSQ
chain 2: MATFISVQLKKTSEVDLAKPLVKFIQQTYPSGGEEQAQYCRAAEELSKLRRAAVGRPLDKHEGALETLLRYYDQICSIEPKFPFSENQICLTFTWKDAFDKGSLFGGSVKLALASLGYEKSCVLFNCAALASQIAAEQNLDNDEGLKIAAKHYQFASGAFLHIKETVLSALSREPTVDISPDTVGTLSLIMLAQAQEVFFLKATRDKMKDAIIAKLANQAADYFGDAFKQCQYKDTLPKEVFPVLAAKHCIMQANAEYHQSILAKQQKKFGEEIARLQHAAELIKTVASRYDEYVNVKDFSDKINRALAAAKKDNDFIYHDRVPDLKDLDPIGKATLVKSTPVNVPISQKFTDLFEKMVPVSVQQSLAAYNQRKADLVNRSIAQMREATTLANGVLASLNLPAAIEDVSGDTVPQSILTKSRSVIEQGGIQTVDQLIKELPELLQRNREILDESLRLLDEEEATDNDLRAKFKERWQRTPSNELYKPLRAEGTNFRTVLDKAVQADGQVKECYQSHRDTIVLLCKPEPELNAAIPSANPAKTMQGSEVVNVLKSLLSNLDEVKKEREGLENDLKSVNFDMTSKFLTALAQDGVINEEALSVTELDRVYGGLTTKVQESLKKQEGLLKNIQVSHQEFSKMKQSNNEANLREEVLKNLATAYDNFVELVANLKEGTKFYNELTEILVRFQNKCSDIVFARKTERDELLKDLQQSIAREPSAPSIPTPAYQSSPAGGHAPTPPTPAPRTMPPTKPQPPARPPPPVLPANRAPSATAPSPVGAGTAAPAPSQTPGSAPPPQAQGPPYPTYPGYPGYCQMPMPMGYNPYAYGQYNMPYPPVYHQSPGQAPYPGPQQPSYPFPQPPQQSYYPQQ

- Variants of: B1
- assay-summary: yeast two-hybrid, liquid β-galactosidase assay; yeast AH109, 30°C, SD/-Leu/-Trp selection medium; triplicate; parent: 1; read off a plot
measurement-type: ratio to parent

> print(dat)
     mutant.name  measurement.type  result
 1  chain 1 F45A   ratio to parent      ~1
 2  chain 1 G46A   ratio to parent   ~0.95
 3  chain 1 K33A   ratio to parent      ~1
 4  chain 1 L41A   ratio to parent   ~0.15
 5  chain 1 D32A   ratio to parent   ~0.86
 6  chain 1 T39A   ratio to parent    ~1.1
 7  chain 1 S43A   ratio to parent    ~0.8
 8  chain 1 I31A   ratio to parent   ~0.95
 9  chain 1 L44A   ratio to parent    ~0.6
10  chain 1 E34A   ratio to parent   ~0.35
11  chain 1 S40A   ratio to parent      ~1
12  chain 1 P37A   ratio to parent    ~0.3
13  chain 1 R42A   ratio to parent   ~0.25
14  chain 1 L35A   ratio to parent    ~0.2
